Source: PubChem BioAssay (EPA / NIEHS)

- Read-out: Macrophage colony-stimulating factor (MCSF), CSF1 (gene 1435)
- Method Summary: BSK_CASM3C_MCSF: BioMAP Diversity Plus: CASM3C Assay for Macrophage colony-stimulating factor (MCSF) Biomarker Activity (AID 2283044);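 also: M-CSF protein amount quantified by ELISA after 24 h exposure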
- Condition Label: primary human coronary artery smooth muscle cells; actives raise or lower the signal
Calls of active or inactive are those of the source. The calls were made as follows: active = hit-call score of the fitted dose curve at least 0.9, where 1 is the maximum; inactive = score below 0.9.
Answer with one of the outcomes given here: YES = active, NO = inactive

Field: outcome | Entry: OCC(CO)(CBr)CBr
NO

Field: outcome | Entry: O=C(NCc1ncc(C(F)(F)F)cc1Cl)c1c(Cl)cccc1Cl
NO

Field: outcome | Entry: CC1=NN(c2ccccc2)C(=O)C1
NO

Field: outcome | Entry: CCCCCCCCCCCCCCCCCC[N+](C)(C)Cc1ccccc1
YES

Field: outcome | Entry: Clc1ccc(Nc2nnc(Cc3ccncc3)c3ccccc23)cc1
NO

Field: outcome | Entry: O=C(CCCN1CCC(O)(c2ccc(Cl)cc2)CC1)c1ccc(F)cc1
NO

Field: outcome | Entry: O=C1NS(=O)(=O)c2ccccc21
NO

Field: outcome | Entry: CN(CCO)S(=O)(=O)C(F)(F)C(F)(F)C(F)(F)C(F)(F)C(F)(F)C(F)(F)C(F)(F)C(F)(F)F
NO

Field: outcome | Entry: CCOC(=O)CN[C@@H](C(=O)N1CC[C@H]1C(=O)NCc1ccc(/C(N)=N/O)cc1)C1CCCCC1
NO

Field: outcome | Entry: CCCCCCCCCCCCCCC
NO

Field: outcome | Entry: CCCCCCCCCCCCOS(=O)(=O)O
NO

Field: outcome | Entry: CC(C)(C)c1ccc(O)c(O)c1
NO

Field: outcome | Entry: COCN(COC)c1nc(N(COC)COC)nc(N(COC)COC)n1
NO

###

- Tgt: Hepatocyte nuclear factor 4-alpha (Homo sapiens) (UniProt P41235)
- Sequence (P41235 whole entry, looked up): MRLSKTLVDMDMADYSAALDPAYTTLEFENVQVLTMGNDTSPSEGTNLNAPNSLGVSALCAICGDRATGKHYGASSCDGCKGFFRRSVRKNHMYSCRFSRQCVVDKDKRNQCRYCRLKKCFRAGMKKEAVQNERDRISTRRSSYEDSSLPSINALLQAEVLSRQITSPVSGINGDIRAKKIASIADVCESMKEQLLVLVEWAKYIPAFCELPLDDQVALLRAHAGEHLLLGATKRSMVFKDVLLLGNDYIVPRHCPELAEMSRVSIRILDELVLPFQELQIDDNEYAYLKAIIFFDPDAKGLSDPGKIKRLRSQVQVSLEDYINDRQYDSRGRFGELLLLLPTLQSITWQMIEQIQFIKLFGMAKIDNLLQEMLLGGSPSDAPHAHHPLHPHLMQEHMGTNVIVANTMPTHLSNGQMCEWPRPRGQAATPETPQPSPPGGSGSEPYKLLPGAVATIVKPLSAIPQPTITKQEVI
- Method Summary: ATG_HNF4a_TRANS: Attagene TRANS-FACTORIAL HepG2 Assay for human Hepatocyte Nuclear Factor 4 alpha (HNF4a) (AID 2282982)
- Condition Label: HepG2 HNF4a transactivation reporter, mRNA readout
Inconclusive results are not listed. Calls of active or inactive are those of the source. Rule for the calls: active = hit-call score of the fitted dose curve at least 0.9, where 1 is the maximum; inconclusive = response in the unintended direction; inactive = score below 0.9.
Answer with one of the outcomes given here: True = active, False = inactive

Field: outcome | Entry: Cc1ccc(S(=O)(=O)O)cc1
False

Field: outcome | Entry: O=P(O)(O)CCC(F)(F)C(F)(F)C(F)(F)C(F)(F)C(F)(F)C(F)(F)C(F)(F)C(F)(F)F
False

Field: outcome | Entry: OCCN1CN(CCO)CN(CCO)C1
False

Field: outcome | Entry: CCOC(OCC)C(=O)c1ccccc1
False

Field: outcome | Entry: CCCCCCOC(=O)c1ccc(O)cc1
False

Field: outcome | Entry: CCCCCCCCCCCCCCCCCC[N+](C)(C)Cc1ccccc1
True

Field: outcome | Entry: Cc1ccc(C(=O)c2ccccc2)cc1
False

Field: outcome | Entry: COC(=O)C(F)(F)C(F)(F)C(F)(F)C(F)(F)C(F)(F)F
False

###

- Method Summary: CCTE_Shafer_MEA_dev_burst_duration_mean: CCTE's Neural Network Formation Assay for Mean Burst Duration, Shafer Lab (AID 2284045)
- Protocol: CCTE_Shafer_MEA_dev assay is conducted using Axion Biosystems 48 well microelectrode array (MEA) plates and Maestro recording system. Each well of the MEA plate contains a grid of 16 microelectrodes embedded in the culture surface. Electrically active cells, such as neurons, can be cultured over the electrodes, and electrical activity in these cells can be recorded extracellularly. […]
The source made the active and inactive calls. The calls were made as follows: active = hit-call score of the fitted dose curve at least 0.9, where 1 is the maximum; inactive = score below 0.9.
Answer with one of the outcomes given here: active, inactive

Field: outcome | Entry: FC(F)=C(F)C(F)(F)C(F)(F)C(F)(F)C(F)F
inactive

Field: outcome | Entry: COC(=O)C(F)(F)C(F)(F)C(F)(F)C(F)(F)C(F)(F)F
inactive

Field: outcome | Entry: Nc1ccn([C@@H]2O[C@H](CO)[C@@H](O)C2O)c(=O)n1 (stereo partly specified)
active

Field: outcome | Entry: O=C1NS(=O)(=O)c2ccccc21
inactive

Field: outcome | Entry: O=C(CC(=O)C(F)(F)C(F)(F)C(F)(F)F)c1cccs1
inactive

Field: outcome | Entry: O=CC(F)(F)C(F)(F)C(F)(F)C(F)F
inactive

###

- Method Summary: ATG_ERE_CIS: Attagene CIS-FACTORIAL HepG2 Assay for Estrogen Response Element (ERE) (AID 2282940)
- Condition Label: HepG2 ERE cis-reporter, Attagene RNA transcript; actives raise or lower the signal
- Description: ATG_CIS is a cell-based, multiplexed-readout assay that uses HepG2, a human liver cell line, with measurements taken at 24 hours after chemical dosing in a 24-well plate.ATG_ERE_CIS is one of 52 assay component(s) measured or calculated from the ATG_CIS assay. […] This assay endpoint, ATG_ERE_CIS, was analyzed with bidirectional fitting relative to DMSO as the negative control and baseline of activity. […]
Activity calls are given as the source filed them. The calls were made as follows: active = hit-call score of the fitted dose curve at least 0.9, where 1 is the maximum; inactive = score below 0.9.
Answer with one of the outcomes given here: active, inactive

Field: outcome | Entry: Oc1c(Cl)cc(Cl)cc1Sc1cc(Cl)cc(Cl)c1O
inactive

Field: outcome | Entry: CCCCCCCC(OC)OC
inactive

Field: outcome | Entry: CCCCCCCCC(C)=O
inactive

Field: outcome | Entry: FC(F)(F)C1(F)C(F)(F)C(F)(F)C(F)(F)C(F)(C(F)(F)F)C1(F)F (centres undefined)
inactive

Field: outcome | Entry: O=C(O)CCC(F)(F)C(F)(F)C(F)(F)C(F)(F)C(F)(F)C(F)(F)F
inactive

Field: outcome | Entry: O=C(CC(=O)C(F)(F)C(F)(F)C(F)(F)F)c1cccs1
inactive

Field: outcome | Entry: CCOC(C)=O
inactive

Field: outcome | Entry: CCC(=O)C=Cc1ccc(OC)cc1
inactive

Field: outcome | Entry: c1ccc(CNc2ncnc3c2ncn3C2CCCCO2)cc1 (centres undefined)
inactive

Field: outcome | Entry: CCN(CCC#N)c1ccccc1
inactive

Field: outcome | Entry: COc1ccccc1NC(=O)c1cc2ccccc2cc1O
inactive

Field: outcome | Entry: CCCCCCCCCCCC[N+](C)(C)CCCCCCCCCCCC
inactive

Field: outcome | Entry: CCCCN(C)C
inactive

Field: outcome | Entry: O=C(O)CCC(F)(F)C(F)(F)C(F)(F)C(F)(F)C(F)(F)F
inactive

Field: outcome | Entry: Clc1ccc(Nc2nnc(Cc3ccncc3)c3ccccc23)cc1
inactive

Field: outcome | Entry: CN(Cc1cnc2nc(N)nc(N)c2n1)c1ccc(C(=O)N[C@@H](CCC(=O)O)C(=O)O)cc1
inactive

Field: outcome | Entry: NCc1cccc(CN)c1
inactive

Field: outcome | Entry: Cc1ccc(C(=O)c2ccccc2)cc1
active

Field: outcome | Entry: C=Cc1ccc(O)c(OC)c1
inactive

Field: outcome | Entry: O=C(Nc1cccc([N+](=O)[O-])c1)c1cc2ccccc2cc1O
active

Field: outcome | Entry: O=C(c1cc(O)c(O)c(O)c1)c1ccc(O)c(O)c1O
inactive

Field: outcome | Entry: CCCCCC(C)OC(=O)COc1ccc(Cl)c2cccnc12 (centres undefined)
inactive

Field: outcome | Entry: CCCCCCCCC1CCC(=O)O1 (centres undefined)
inactive

Field: outcome | Entry: O=C(C=C(O)C(F)(F)F)C(F)(F)F
inactive

Field: outcome | Entry: OCC(F)(F)C(F)(F)C(F)(F)C(F)(F)C(F)(F)C(F)(F)C(F)(F)C(F)(F)C(F)(F)C(F)(F)C(F)(F)F
active

Field: outcome | Entry: O=C1OC(=O)c2cc(-c3ccc4c(c3)C(=O)OC4=O)ccc21
inactive

Field: outcome | Entry: Cc1cc(C(=C2C=CC(=Nc3ccc(S(=O)(=O)O)cc3)C=C2)c2ccc(Nc3ccc(S(=O)(=O)O)cc3)cc2)cc(S(=O)(=O)O)c1N
inactive

Field: outcome | Entry: CC(C)(O)C(=O)c1ccccc1
inactive

Field: outcome | Entry: NCCN
inactive

Field: outcome | Entry: Cc1ccc(N=Nc2c(O)ccc3ccccc23)c(C)c1
active

Field: outcome | Entry: Nc1cc(Cl)c(-c2cc(Cl)c(N)cc2Cl)cc1Cl
inactive

Field: outcome | Entry: COCC1CCC(CO)CC1 (centres undefined)
active

Field: outcome | Entry: O=CC(F)(F)C(F)(F)C(F)(F)C(F)F
inactive

Field: outcome | Entry: CC1COCc2cc3c(cc21)C(C)(C)C(C)C3(C)C (centres undefined)
inactive

###

- Method Summary: ATG_NFI_CIS: Attagene CIS-FACTORIAL HepG2 Assay for human Nuclear Factor I (NFI) (AID 2282989)
- Condition Label: HepG2 cis-regulatory reporter, NFI response element transcription; actives raise or lower the signal
Active and inactive are the calls of the source. Rule for the calls: active = hit-call score of the fitted dose curve at least 0.9, where 1 is the maximum; inactive = score below 0.9.
Answer with one of the outcomes given here: 1 for active, 0 for inactive

Field: outcome | Entry: CCC(C)c1nccnc1OC (stereo not given)
0

Field: outcome | Entry: OCC1CCC(CO)CC1 (stereo not given)
0

Field: outcome | Entry: CCO[Si](CCC1CCC2OC2C1)(OCC)OCC (stereo not given)
0

Field: outcome | Entry: COc1ccc(C#N)cc1
0

Field: outcome | Entry: CC1COCc2cc3c(cc21)C(C)(C)C(C)C3(C)C (stereo not given)
1

Field: outcome | Entry: Cc1cncc(C)c1
0

Field: outcome | Entry: CCC1CO1 (stereo not given)
0

Field: outcome | Entry: O=C(O)C(=O)O
0

Field: outcome | Entry: CCCCCCCCCCCC[N+](C)(C)CCCCCCCCCCCC
0

Field: outcome | Entry: CCc1cccc(CC)c1NC(=O)C(=O)O
0

Field: outcome | Entry: CCCCCCCCCCCC(=O)O
0

Field: outcome | Entry: CCCCCCCCCCCC(=O)NCCCN(C)C
1

Field: outcome | Entry: c1ccc(CNc2ncnc3c2ncn3C2CCCCO2)cc1 (stereo not given)
0

Field: outcome | Entry: NCCN
0

Field: outcome | Entry: CC(C)(C)c1ccc(O)c(O)c1
0

Field: outcome | Entry: FC(F)(F)C(F)(F)C(F)(F)Br
0

Field: outcome | Entry: C=COC(=O)C(C)(C)CCCCCC
0

Field: outcome | Entry: NC(C(F)(F)F)C(F)(F)F
0

Field: outcome | Entry: COc1cccc(O)c1
0

Field: outcome | Entry: CCO[Si](C)(C)OCC
0

Field: outcome | Entry: CC=O
0

Field: outcome | Entry: CCCCCCC(C)(C)C(=O)O
0

Field: outcome | Entry: COC(=O)C(F)(F)C(F)(F)C(F)(F)C(F)(F)C(F)(F)F
0

Field: outcome | Entry: FC(F)(F)N1C(F)(F)C(F)(F)OC(F)(F)C1(F)F
0

Field: outcome | Entry: N=C(N)c1ccc(OCCCCCOc2ccc(C(=N)N)cc2)cc1
0
